System: IGROV-1
assay_notes: NCI tumour cell line growth inhibition, 48 h
Calls of active or inactive are those of the source. Cut-off read from the data, not from the text of the source: active = GI50 up to about 1.1 µM and inactive = higher.
molecules and their reported GI50
measured_property: GI50

• COc1cc(C2c3cc4c(cc3C(NCC(O)CO)C3COC(=O)[C@H]23)OCO4)cc(OC)c1OC (some centres not stated) = > 100 µM (inactive)
• CN(C)c1ccc2c3c(c(=O)oc2c1)CCC3 = 84.1 µM (inactive)
• CC(C)C1=CC(=O)[C@@](C)(C2[C@H](O)C[C@@]3(C)[C@@H]4CC=C5[C@@H](CC[C@@H](OC6OCC(O)C(O)C6OC6OC(C)C(O)C(O)C6O)C5(C)C)[C@]4(C)C(=O)C[C@]23C)O1 (some centres not stated) = > 100 µM (inactive)
• CC(NC(=O)c1ccc(OP(=O)(OCC2=CC(=O)c3ccccc3C2=O)N(C)CCCCCl)cc1)c1ccc(OCC2CCCCC2)c(C(N)=O)c1 (configuration not stated) = 9.66 µM (inactive)
• COc1c2nc(CCl)n(C)c(=O)c2c(OC)c2c(=O)n(C)c(CCl)nc12 = 1.94 µM (inactive)
• CN(C)C(=O)/N=c1\ss/c(=N\C(=S)N(C)C)n1-c1ccccc1 = 29.4 µM (inactive)
• CCOC(=O)C1C(=O)CN2CCc3c([nH]c4ccccc34)C12C(=O)OCC (configuration not stated) = > 100 µM (inactive)

====

Entries and their GI50 values follow.
System: M14
assay_notes: NCI tumour cell line growth inhibition, 48 h
Calls of active or inactive are those of the source. No stated cut-off is given here; in the data, active = GI50 up to about 1.1 µM and inactive = higher.
measured_property: GI50

- COC(=O)[C@@]1(Cc2ccc(OC(C)=O)cc2)Cc2cc3ccccc3n2N1: 39.4 µM (inactive)
- CN(C)C(=S)N=C(Nc1ccccc1)Nc1ccccc1: > 100 µM (inactive)
- CCOC(=O)c1c2ccc(/C=C/c3ccccn3)ccc-2c(C(=O)OCC)c1N: > 100 µM (inactive)
- OCCOCCN1CCN(c2nc(N3CCCC3)c3nc(Cl)c(NCc4ccccc4)nc3n2)CC1: 11.6 µM (inactive)
- CNn1c(C)n[nH]c1=O: > 100 µM (inactive)
- CN1CCN=C1c1nnn(-c2ccc([N+](=O)[O-])cc2)c1-c1ccccc1: > 100 µM (inactive)
- CC1C(c2ccc(Cl)cc2)c2cc3c(cc2OC1N1CCOCC1)OCO3 (stereo not given): 85.3 µM (inactive)
- CN(C)CC(/C(Cc1ccccc1)=N\NC(=O)C[n+]1ccccc1)c1ccccc1 (stereo not given): > 100 µM (inactive)
- CC(=O)c1nccc2c1c(C)nc1ccccc12: > 100 µM (inactive)
- CC(=O)Oc1ccc2c(c1)CC[C@@H]1C2[C@@H](O[N+](=O)[O-])C[C@@]2(C)C1CC[C@@H]2O (stereo not given in full): 28.3 µM (inactive)

====

compounds and their reported GI50
Test system: SF-295
assay_notes: NCI tumour cell line growth inhibition, 48 h
Activity calls are given as the source filed them. Rule as the data show it: active = GI50 up to about 1.1 µM and inactive = higher.
measured_property: GI50

- COc1ccc(C(=O)O)c(Cc2cccc3ccccc23)c1: > 100 µM (inactive)
- CCC(=O)C1(N2CCOCC2)CCN(CCCC(=O)c2ccc(F)cc2)CC1: > 100 µM (inactive)
- CCOC(=O)/C(C(N)=O)=C(O)/C(O)=C/C(=O)c1ccc(Cl)cc1: 29.2 µM (inactive)
- COc1ccc(/C=C(\C#N)c2nc(-c3cc4ccccc4oc3=O)cs2)cc1: 21.9 µM (inactive)
- CN(CCN(C)CCN(C)C(=O)Cc1ccc(Cl)c(Cl)c1)CCN1CCCC1: 19.6 µM (inactive)
